# Test system: Fibroblast
# measurement.protocol: Multiplex assay against human fibroblast
# Type: toxicity, cell-based
# condition: 24 h, 1 µM, compound concentration 1 uM, replicate 2
Define the label as Yes when Population Pyknosed Nuclei (%) is strictly less than 10% and as No in all remaining cases.

COc1ccc(S(=O)(=O)N(CCO)c2ccccc2CN(C)C/C=C/c2ccc(Cl)cc2)cc1.O=P(O)(O)O
No
CN[C@@H]1C[C@H]2O[C@@](C)([C@@H]1OC)n1c3ccccc3c3c4c(c5c6ccccc6n2c5c31)C(=O)NC4
No
O=C(Cc1ccc(-c2ccc(OCCN3CCOCC3)cc2)cn1)NCc1ccccc1
No
COc1cc2ncnc(Nc3ccc(F)c(Cl)c3)c2cc1NC(=O)/C=C/CN1CCCCC1 [DACOMITINIB ANHYDROUS]
Yes
Cc1ccc(C(=O)Nc2cccc(C(F)(F)F)c2)cc1Nc1nc(-c2cccnc2)nc2c1cnn2C
No
O=C(Nc1ccc(-n2nc(-c3cccnc3)cc2C(F)(F)F)cn1)c1ccc(-c2ccccc2)c(F)c1
Yes

**Query** Answer whether the molecule `C=C1/C(=C\C=C2/CCC[C@]3(C)[C@@H]([C@H](C)/C=C/[C@H](C)C(C)C)CC[C@@H]23)C[C@@H](O)C[C@@H]1O` has Population Pyknosed Nuclei (%) strictly less than 10%
**Result** Yes

* * *

# System: HEK-293T
# measurement.protocol: Multiplex assay against HEK293T
# Format: toxicity, cell-based
# condition: human, 24 h, 10 µM, compound concentration 10 uM, replicate 1
readout: Population Mitochondria Different-Phenotype (%)
Your answer should be a plain number; it is taken to be in %.

Recorded results for 3 compounds are shown here.
CN1CCC(=C2c3ccccc3CC(=O)c3sccc32)CC1.O=C(O)/C=C/C(=O)O [KETOTIFEN FUMARATE]
97
CNc1cc(Oc2cc(C(=O)Nc3cc(N4CCN(C)CC4)cc(C(F)(F)F)c3)ccc2C)ncn1
100
O=C(Cc1ccc(-c2ccc(OCCN3CCOCC3)cc2)cn1)NCc1ccccc1
82

The recorded Population Mitochondria Different-Phenotype (%) for entry `COc1cccc2cc(-c3nc([C@H]4CC[C@H](C(=O)O)CC4)n4ncnc(N)c34)[nH]c12` equals 3

* * *

# Tested on: Fibroblast
# measurement.protocol: Multiplex assay against human fibroblast
# Format: toxicity, cell-based
# condition: 12 h, 1 µM, compound concentration 1 uM, replicate 1
readout: Population Hoechst High Intensity Objects (%)

Recorded results for 5 molecules are shown here.
Cn1nc(C(F)(F)F)cc1-c1cnc(N2CCc3cc(S(=O)(=O)Nc4c(F)cc(Cl)cc4F)cc(N4CCCC4=O)c32)nc1
13%
C=CCn1c(=O)c2cnc(Nc3ccc(N4CCN(C)CC4)cc3)nc2n1-c1cccc(C(C)(C)O)n1
15%
C=C1/C(=C\C=C2/CCC[C@]3(C)[C@@H]([C@H](C)/C=C/[C@H](C)C(C)C)CC[C@@H]23)C[C@@H](O)C[C@@H]1O
10%
CNC(=O)c1ccc(Nc2nc(OC3CCCC3)c3c(-c4ccc5nc(C)oc5c4)c[nH]c3n2)c(OC)c1
10%
CCCS(=O)(=O)c1nc(NC2CC2)cc(-c2ccc3c(ccn3C3CC(C)(C)NC(C)(C)C3)c2)n1
11%

The recorded Population Hoechst High Intensity Objects (%) for entry `Cc1cc(C)c(S(=O)(=O)N(Cc2ccc(-c3cccc(S(C)(=O)=O)c3)cc2)Cc2ccc(C(F)(F)F)o2)c(C)c1` equals 8%

The recorded Population Hoechst High Intensity Objects (%) for entry `Cl.O=c1c2cccn2c2ccccc2n1CCCN1CCC(c2ccc(Cl)cc2)CC1` equals 12%

The recorded Population Hoechst High Intensity Objects (%) for entry `O=C(Nc1ccc(Cl)cc1)Nc1cccc(-c2cccc(N3CCCC3)n2)c1` equals 18%
